Reference source: ChEMBL document CHEMBL5380879

- Method summary: in vivo
- Condition parameters: mouse, po, 10 mg/kg
Property label: half-life (h)
# output: bare number, implied unit h

Problem: Entry under review: `C[C@H]1Cc2c([nH]c3cc(Cl)c(F)cc23)[C@@]2(N1)C(=O)Nc1ccc(Cl)cc12` . Reported half-life?
Solution: 24

---

- Method summary: Cmax in mouse plasma at 5 mg/kg, po
- Format: ADME, organism-based
- Set-up: dose 5 mg/kg, route po
Property label: Cmax
Please give the number followed by its unit.

Problem: Consider the compound `CC(=O)N1CCN(c2ccc(CN(C(=O)/C=C/c3ccc(C(C)(C)C)cc3)[C@@H](Cc3ccccc3)C(=O)N3CCN(Cc4ccc(C#N)cc4)CC3)cc2)CC1` and give its measured Cmax.
Solution: 11.9 ng/mL

---

- Method summary: Oral bioavailability in NSG mouse
- Assay type: ADME, organism-based
- Condition parameters: in vivo
Property label: bioavailability

Problem: What value of bioavailability has been recorded for this entry: `N=C(N)NC(=O)c1cc(C#Cc2ccc(C(F)(F)F)c(C(=O)Nc3ccccn3)c2)cc(C(F)(F)F)c1`
Solution: > 70%

---

- Method summary: Oral bioavailability in Sprague-Dawley rat at 20 mg/kg by LC-MS/MS analysis
- Format: ADME, organism-based
- Condition parameters: in vivo
Property label: bioavailability (%)
Value expressed in %; do not type the unit.

Problem: So what does the record say about bioavailability for `CCN(CC)CCCNc1ccnc2cc(Cl)ccc12` ?
Solution: 70
